# Experimental target: JAK3 (Homo sapiens, UniProt P52333)
# Construct: made in house; host or cells: SF9 insect cells (baculovirus)
# Sequence (P52333 783-1124): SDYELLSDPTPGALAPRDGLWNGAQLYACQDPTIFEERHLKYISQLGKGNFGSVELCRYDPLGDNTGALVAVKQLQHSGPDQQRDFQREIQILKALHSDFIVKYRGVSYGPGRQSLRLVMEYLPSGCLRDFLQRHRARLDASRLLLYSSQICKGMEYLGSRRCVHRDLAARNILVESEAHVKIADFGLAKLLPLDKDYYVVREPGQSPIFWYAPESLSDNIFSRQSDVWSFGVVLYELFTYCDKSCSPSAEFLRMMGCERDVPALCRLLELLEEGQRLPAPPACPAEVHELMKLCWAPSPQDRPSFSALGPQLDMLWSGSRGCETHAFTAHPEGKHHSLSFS
# Run description: JAK3 inhibition (Table 4)
# Format: biochemical
# Test context: read-out: JAK3 Ki
Reported property: Ki (nM)
Respond numerically; units are nM and should not be typed.

Kindly note the recorded Ki for O=c1ccn(Cc2nc3cnc4[nH]ccc4c3n2C2CCOCC2)c(=O)[nH]1 [Example 470] , which is 64.8

Kindly note the recorded Ki for N#CCC(=O)N1CCCCC(n2cnc3cnc4[nH]ccc4c32)C1 (racemic) [Example 988] , which is 9.33

Kindly note the recorded Ki for O=C(Cc1nc2cnc3[nH]ccc3c2n1C1CCNCC1)N1CCS(=O)(=O)CC1 [Example 262] , which is 96.5

Kindly note the recorded Ki for CS(=O)(=O)NCc1nc2cnc3[nH]ccc3c2n1C1CCNCC1 [Example 206] , which is 3050
